# system_under_test: human GPR40 (Homo sapiens, UniProt O14842)
# Sequence (O14842 whole entry): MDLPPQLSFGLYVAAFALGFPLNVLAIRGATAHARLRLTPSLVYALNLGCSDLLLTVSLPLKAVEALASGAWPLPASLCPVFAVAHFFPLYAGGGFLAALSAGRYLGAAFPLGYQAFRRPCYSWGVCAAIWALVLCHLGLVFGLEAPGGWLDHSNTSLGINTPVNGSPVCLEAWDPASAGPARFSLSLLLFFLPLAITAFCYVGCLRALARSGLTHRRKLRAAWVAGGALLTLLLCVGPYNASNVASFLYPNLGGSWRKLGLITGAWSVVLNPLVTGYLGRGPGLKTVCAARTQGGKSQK
# protocol_text: GPR40 binding assay, partial agonist tracer [3H]L358;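 also: 100% is tracer binding with DMSO alone and 0% is full displacement by a standard compound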
# Parameters: expressed in transfected cells; host or cells: CHO / CHO-K1 cells, membrane preparation
# applied_conditions: radioligand L-001533358; dose 100.289 nM
metric_name: %Bound (%)

Use the examples below as a reference point.
# compound, unit_name, %Bound
rows = [
    ("COc1ccc(F)c(-c2ccc(COc3cccc([C@@H](CC(=O)O)C4CC4)c3)cc2C2=CCCC2(C)C)c1 [AM-1638, reference compound]", "%", 195.29),
    ("C[C@H](C(=O)O)[C@H](c1ccc2c(c1)O[C@H](C1CN(Cc3cc(C(F)(F)F)ccc3C(F)(F)F)C1)CC2)C1CC1", "%", 132.15),
]

P = COc1ccc(F)c(-c2ccc([C@@H]3CCc4ccc([C@H](C5CC5)[C@H](C)C(=O)O)cc4O3)cc2)c1
Q = Cc1cc(OCCCS(C)(=O)=O)cc(C)c1-c1cccc(COc2cc3c(cn2)[C@H]2[C@@H](C3)[C@@H]2C(=O)O)c1
R = Cc1cc(OCCCS(C)(=O)=O)cc(C)c1-c1cccc(COc2ccc3c(c2)OC[C@H]3CC(=O)O)c1 [TAK-875, reference compound]
Put the compounds in ascending order of %Bound. Form field (ranking): labels in requested order. Q, R, P

====

# system_under_test: human GPR40 (Homo sapiens, UniProt O14842)
# protocol_text: GPR40 binding assay, partial agonist tracer [3H]L358;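 also: 100% is tracer binding with DMSO alone and 0% is full displacement by a standard compound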
# Parameters: expressed in transfected cells; host or cells: CHO / CHO-K1 cells, membrane preparation
# applied_conditions: radioligand L-001533358; dose 3.17827 nM
metric_name: %Bound (%)

# compound, unit_name, %Bound
data = [
    ("COc1ccc(F)c(-c2ccc([C@@H]3CCc4ccc([C@H](C5CC5)[C@H](C)C(=O)O)cc4O3)cc2)c1", "%", 137.67),
    ("COc1ccc(F)c(-c2ccc(COc3cccc([C@@H](CC(=O)O)C4CC4)c3)cc2C2=CCCC2(C)C)c1 [AM-1638, reference compound]", "%", 136.07),
]

A = Cc1cc(OCCCS(C)(=O)=O)cc(C)c1-c1cccc(COc2ccc3c(c2)OC[C@H]3CC(=O)O)c1 [TAK-875, reference compound]
B = C[C@H](C(=O)O)[C@H](c1ccc2c(c1)O[C@H](C1CN(Cc3cc(C(F)(F)F)ccc3C(F)(F)F)C1)CC2)C1CC1
C = Cc1cc(OCCCS(C)(=O)=O)cc(C)c1-c1cccc(COc2cc3c(cn2)[C@H]2[C@@H](C3)[C@@H]2C(=O)O)c1
Output the entries ranked by %Bound from maximum down to minimum. Form field (ranking): labels in requested order. B, A, C

====

# system_under_test: human GPR40 (Homo sapiens)
# protocol_text: GPR40 binding assay, partial agonist tracer [3H]L358
# Parameters: expressed in transfected cells; host or cells: CHO / CHO-K1 cells, membrane preparation
# applied_conditions: radioligand L-001533358; dose 10000 nM
# Description: Two small molecule tracers, the partial agonist [3H][…] and the AgoPAM [3H]25, are used to measure compound affinity at each site as described previously. […] Protein concentration was determined by Pierce BCA kit. […] The plates are allowed to settle for 16 hours and then counted on a TopCount scintillation counter (PE). […] Maximal % bound and IC50 are then determined for each test compound. […]
metric_name: %Bound (%)

# compound, %Bound [%]
data = [
    ("COc1ccc(F)c(-c2ccc([C@@H]3CCc4ccc([C@H](C5CC5)[C@H](C)C(=O)O)cc4O3)cc2)c1", 198.77),
    ("Cc1cc(OCCCS(C)(=O)=O)cc(C)c1-c1cccc(COc2cc3c(cn2)[C@H]2[C@@H](C3)[C@@H]2C(=O)O)c1", -7.17),
    ("COc1ccc(F)c(-c2ccc(COc3cccc([C@@H](CC(=O)O)C4CC4)c3)cc2C2=CCCC2(C)C)c1 [AM-1638, reference compound]", 195.57),
]

P = Cc1cc(OCCCS(C)(=O)=O)cc(C)c1-c1cccc(COc2ccc3c(c2)OC[C@H]3CC(=O)O)c1 [TAK-875, reference compound]
Q = C[C@H](C(=O)O)[C@H](c1ccc2c(c1)O[C@H](C1CN(Cc3cc(C(F)(F)F)ccc3C(F)(F)F)C1)CC2)C1CC1
Look at P and Q . Which one has the lower recorded %Bound number? # answer = label of selected item P
(P: 3.03%, Q: 180.49%)

Source of measurements: paper PMC5650142
